Target: Adenosine receptor A1 (Homo sapiens)
Sequence (P30542 whole entry): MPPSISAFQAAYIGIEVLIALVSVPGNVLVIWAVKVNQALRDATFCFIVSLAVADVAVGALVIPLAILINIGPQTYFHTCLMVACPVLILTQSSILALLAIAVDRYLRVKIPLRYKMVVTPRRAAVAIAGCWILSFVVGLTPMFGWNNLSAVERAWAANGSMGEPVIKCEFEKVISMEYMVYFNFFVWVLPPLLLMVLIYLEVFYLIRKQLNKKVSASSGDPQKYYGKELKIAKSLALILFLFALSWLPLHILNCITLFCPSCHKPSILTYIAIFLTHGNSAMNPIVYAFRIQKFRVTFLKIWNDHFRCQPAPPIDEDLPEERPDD
Assay: Displacement of [125I]ABA from human recombinant adenosine A1 receptor by rapid filtration technique
QUANTITY NAME: pKi
Scale: negative log10 of molar concentration, which is what pKi denotes.

Solved cases below.
>>> measured_number("CNC(=O)[C@H]1O[C@@H](n2cnc3c(NCCc4cc(C(C)(C)C)c(O)c(C(C)(C)C)c4)ncnc32)[C@H](O)[C@@H]1O")
6.21
>>> measured_number("CNC(=O)[C@H]1O[C@@H](n2cnc3c(NCC4CC(C)(C)N([O])C4(C)C)ncnc32)[C@H](O)[C@@H]1O (some centres undefined)")
6.24
>>> measured_number("CNC(=O)[C@H]1O[C@@H](n2cnc3c(Nc4ccc(CCNC(=O)c5cc(C(C)(C)C)cc(C(C)(C)C)c5)cc4)ncnc32)[C@H](O)[C@@H]1O")
6.61

Shifting focus to the compound that follows.
Q: What value of pKi has been reported for the following compound? `CNC(=O)[C@H]1O[C@@H](n2cnc3c(Nc4ccc5c(c4)C(C)(C)NC5(C)C)ncnc32)[C@H](O)[C@@H]1O`
Ans: 5.93
